All figures here come from paper PMC9736855.

# tgt: MAPK9 (Homo sapiens, UniProt P45984)
# Construct: purchased in-house DSF panel (SGC Frankfurt)
# Sequence (P45984 1-364): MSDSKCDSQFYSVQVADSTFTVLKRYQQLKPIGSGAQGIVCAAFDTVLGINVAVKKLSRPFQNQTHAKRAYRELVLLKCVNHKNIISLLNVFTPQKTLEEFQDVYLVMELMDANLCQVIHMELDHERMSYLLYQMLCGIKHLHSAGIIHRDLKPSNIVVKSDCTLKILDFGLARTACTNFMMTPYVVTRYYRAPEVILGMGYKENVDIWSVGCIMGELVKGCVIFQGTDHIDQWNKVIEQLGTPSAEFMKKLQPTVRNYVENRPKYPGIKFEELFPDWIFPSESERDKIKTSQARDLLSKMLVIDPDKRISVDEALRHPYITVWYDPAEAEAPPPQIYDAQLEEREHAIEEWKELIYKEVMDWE
# testProtocol: DSF
# Type: binding
Decision: ΔTm MAPK9 beneath 1 °C gives rule met; ΔTm MAPK9 meeting or exceeding 1 °C gives rule not met.

Observe how each entry below is paired with its result.
{"columns": ["compound", "labelClass"],
 "data": [
  ["COC(=O)c1cc(Nc2ccnc(NCc3ccc(NC(=O)OC(C)(C)C)cc3)n2)[nH]n1 [21i]", "rule not met"],
  ["COC(=O)c1cc(Nc2ccnc(NCCOCCNC(=O)OC(C)(C)C)n2)[nH]n1 [21d]", "rule not met"],
  ["CC(C)(C)OC(=O)Nc1ccc(CNc2nccc(Nc3cc(C(=O)OC(C)(C)C)[nH]n3)n2)cc1 [43d]", "rule met"],
  ["CC(C)OC(=O)c1cc(Nc2ccnc(NCc3ccc(NC(=O)OC(C)(C)C)cc3)n2)n[nH]1 [42d]", "rule met"]
]}

# next compound below
Query :: ΔTm MAPK9 strictly < 1 °C for this compound? N#CCc1ccc(Nc2nccc(Nc3cc(C4CC4)[nH]n3)n2)cc1 [compound 1, reference compound]
Result :: rule not met

###

# tgt: ULK1 (Homo sapiens)
# Construct: purchased in-house DSF panel (SGC Frankfurt)
# Sequence (O75385 1-283): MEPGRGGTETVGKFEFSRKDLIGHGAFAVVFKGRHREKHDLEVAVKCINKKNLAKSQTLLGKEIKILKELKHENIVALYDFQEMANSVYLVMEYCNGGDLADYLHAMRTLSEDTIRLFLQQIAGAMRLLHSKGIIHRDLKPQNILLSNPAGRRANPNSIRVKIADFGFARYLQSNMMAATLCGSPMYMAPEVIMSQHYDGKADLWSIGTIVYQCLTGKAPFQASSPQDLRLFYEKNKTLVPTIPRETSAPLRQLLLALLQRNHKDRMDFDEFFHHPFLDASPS
# testProtocol: DSF
# Assay type: binding
Assign ΔTm ULK1 to each entry below.
One number for each entry, in °C.

In the examples that follow, each entry is paired with its recorded ΔTm ULK1.
{"columns": ["molecule", "tgt", "ΔTm ULK1 / °C"],
 "data": [
  ["N#CCc1ccc(Nc2nccc(Nc3cc(C4CC4)[nH]n3)n2)cc1 [compound 1, reference compound]", "ULK1 (Homo sapiens)", 15.5],
  ["COC(=O)c1cc(Nc2ccnc(NCc3ccc(NC(=O)OC(C)(C)C)cc3)n2)[nH]n1 [21i]", "ULK1 (Homo sapiens)", 2.7],
  ["CN[C@@H]1C[C@H]2O[C@@](C)([C@@H]1OC)n1c3ccccc3c3c4c(c5c6ccccc6n2c5c31)C(=O)NC4 [staurosporine, reference compound]", "ULK1 (Homo sapiens)", 11.3]
]}

Alright, here's another molecule for you.
Query :: Dear colleague, I am looking for the recorded ΔTm ULK1 of the following molecule: COC(=O)c1cc(Nc2ccnc(NCCOCCNC(=O)OC(C)(C)C)n2)[nH]n1 [21d]
Result :: 2.3

###

# tgt: STK6 (Homo sapiens, UniProt O14965)
# Construct: purchased in-house DSF panel (SGC Frankfurt)
# Sequence (O14965 122-403): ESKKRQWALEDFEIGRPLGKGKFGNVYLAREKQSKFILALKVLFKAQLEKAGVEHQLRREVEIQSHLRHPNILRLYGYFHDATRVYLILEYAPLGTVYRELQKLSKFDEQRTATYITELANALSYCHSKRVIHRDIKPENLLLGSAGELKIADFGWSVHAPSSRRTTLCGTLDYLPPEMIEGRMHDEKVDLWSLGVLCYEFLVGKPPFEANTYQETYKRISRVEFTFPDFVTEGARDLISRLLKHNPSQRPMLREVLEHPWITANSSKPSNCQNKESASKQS
# testProtocol: DSF
# Format: binding
Please provide measured ΔTm STK6 for the entries that follow.
Answers are plain numbers, in °C.

{"columns": ["compound", "unitText", "ΔTm STK6"],
 "data": [
  ["N#CCc1ccc(Nc2nccc(Nc3cc(C4CC4)[nH]n3)n2)cc1 [compound 1, reference compound]", "°C", 14.3],
  ["CC(C)(C)OC(=O)Nc1ccc(CNc2nccc(Nc3cc(C(=O)OC(C)(C)C)[nH]n3)n2)cc1 [43d]", "°C", 4.0],
  ["COC(=O)c1cc(Nc2ccnc(NCc3ccc(NC(=O)OC(C)(C)C)cc3)n2)[nH]n1 [21i]", "°C", 4.6],
  ["COC(=O)c1cc(Nc2ccnc(NCCOCCNC(=O)OC(C)(C)C)n2)[nH]n1 [21d]", "°C", 3.2]
]}

Turning now to a further record.
Query :: ΔTm STK6 for CC(C)OC(=O)c1cc(Nc2ccnc(NCc3ccc(NC(=O)OC(C)(C)C)cc3)n2)n[nH]1 [42d] ?
Result :: 3.4

###

# tgt: CDK11B/Cyclin L2 (Homo sapiens, UniProt P21127)
# Sequence (P21127 whole entry): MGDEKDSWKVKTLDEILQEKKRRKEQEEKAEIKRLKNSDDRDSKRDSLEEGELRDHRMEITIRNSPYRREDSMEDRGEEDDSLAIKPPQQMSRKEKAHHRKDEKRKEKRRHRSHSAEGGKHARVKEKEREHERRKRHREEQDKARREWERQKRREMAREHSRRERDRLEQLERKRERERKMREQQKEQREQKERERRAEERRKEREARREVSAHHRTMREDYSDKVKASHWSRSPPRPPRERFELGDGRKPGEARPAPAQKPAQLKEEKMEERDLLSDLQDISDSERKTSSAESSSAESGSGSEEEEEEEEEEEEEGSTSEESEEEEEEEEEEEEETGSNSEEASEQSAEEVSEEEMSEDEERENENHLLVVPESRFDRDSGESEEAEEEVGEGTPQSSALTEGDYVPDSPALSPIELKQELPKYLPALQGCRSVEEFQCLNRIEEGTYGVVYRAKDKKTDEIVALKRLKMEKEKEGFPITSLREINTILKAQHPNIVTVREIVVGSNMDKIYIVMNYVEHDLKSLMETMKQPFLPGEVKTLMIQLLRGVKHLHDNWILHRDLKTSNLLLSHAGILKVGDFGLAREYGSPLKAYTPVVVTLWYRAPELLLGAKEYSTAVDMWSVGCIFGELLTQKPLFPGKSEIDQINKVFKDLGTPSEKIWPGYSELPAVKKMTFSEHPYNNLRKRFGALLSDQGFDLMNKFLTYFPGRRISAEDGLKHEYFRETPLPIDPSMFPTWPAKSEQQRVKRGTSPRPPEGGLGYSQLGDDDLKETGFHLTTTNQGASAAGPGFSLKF
# Sequence (Q96S94 whole entry partner): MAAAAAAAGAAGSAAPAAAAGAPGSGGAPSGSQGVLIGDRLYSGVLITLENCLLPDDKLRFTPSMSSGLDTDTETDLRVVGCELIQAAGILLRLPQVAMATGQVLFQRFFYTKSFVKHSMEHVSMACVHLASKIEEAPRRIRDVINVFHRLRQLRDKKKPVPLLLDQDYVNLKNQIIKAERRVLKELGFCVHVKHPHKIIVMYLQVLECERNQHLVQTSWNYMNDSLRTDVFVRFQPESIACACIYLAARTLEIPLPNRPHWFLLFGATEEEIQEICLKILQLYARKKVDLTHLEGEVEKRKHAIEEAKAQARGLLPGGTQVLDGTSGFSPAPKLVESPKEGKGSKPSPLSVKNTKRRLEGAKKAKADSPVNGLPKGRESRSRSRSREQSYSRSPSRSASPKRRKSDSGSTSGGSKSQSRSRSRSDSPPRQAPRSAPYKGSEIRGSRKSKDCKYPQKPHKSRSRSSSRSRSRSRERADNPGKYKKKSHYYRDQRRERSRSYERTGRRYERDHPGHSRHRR
# testProtocol: NanoBRET
# conditionParameters: read-out: NanoBRET EC50 ± SEM CDK11B/Cyclin L2
# Protocol: The assay was performed as described previously. In brief: Full-length kinases were obtained as plasmids cloned in frame with a terminal NanoLuc-fusion (Promega, Madison, WI, USA), as specified in table (Table S6). […] Serially diluted inhibitor and NanoBRET Kinase Tracer (Promega) at a concentration determined previously as the KD,app (Table S5) were pipetted into white 384-well plates (Greiner 781207) using an Echo acoustic dispenser (Labcyte, San Jose, CA, USA). […]
endpoint: EC50 (µM)
Numbers only, in µM.

{"columns": ["compound", "dataValue"],
 "data": [
  ["CC(C)OC(=O)c1cc(Nc2ccnc(NCc3ccc(NC(=O)OC(C)(C)C)cc3)n2)n[nH]1 [42d]", 2.99],
  ["COC(=O)c1cc(Nc2ccnc(NCc3ccc(NC(=O)OC(C)(C)C)cc3)n2)[nH]n1 [21i]", 16.7],
  ["CC(C)(C)OC(=O)Nc1ccc(CNc2nccc(Nc3cc(C(=O)OC(C)(C)C)[nH]n3)n2)cc1 [43d]", 3.58]
]}

Switching to the query record.
Query :: Can you look up the measured EC50 of N#CCc1ccc(Nc2nccc(Nc3cc(C4CC4)[nH]n3)n2)cc1 [compound 1, reference compound] for me?
Result :: 0.669

###

# tgt: GPRK5 (Homo sapiens)
# Construct: purchased in-house DSF panel (SGC Frankfurt)
# Sequence (P34947 whole entry): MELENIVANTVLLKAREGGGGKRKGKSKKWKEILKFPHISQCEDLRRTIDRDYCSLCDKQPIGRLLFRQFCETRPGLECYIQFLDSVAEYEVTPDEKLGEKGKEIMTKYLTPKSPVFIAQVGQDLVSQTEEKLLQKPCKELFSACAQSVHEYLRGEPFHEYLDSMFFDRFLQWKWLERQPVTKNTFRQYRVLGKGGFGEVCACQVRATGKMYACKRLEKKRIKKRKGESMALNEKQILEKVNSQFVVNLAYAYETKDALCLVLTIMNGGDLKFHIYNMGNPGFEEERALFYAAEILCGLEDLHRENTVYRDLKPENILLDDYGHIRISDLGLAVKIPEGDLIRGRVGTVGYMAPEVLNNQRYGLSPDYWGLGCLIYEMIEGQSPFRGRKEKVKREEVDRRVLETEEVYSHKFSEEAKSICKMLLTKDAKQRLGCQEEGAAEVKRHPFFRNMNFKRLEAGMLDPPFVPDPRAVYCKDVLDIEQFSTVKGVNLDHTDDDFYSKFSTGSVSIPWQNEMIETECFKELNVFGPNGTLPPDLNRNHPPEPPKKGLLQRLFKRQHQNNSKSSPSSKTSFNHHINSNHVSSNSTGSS
# testProtocol: DSF
# Assay type: binding
endpoint: ΔTm GPRK5 (°C)
Give bare numbers, in °C.

Answered examples (4):
{"columns": ["compound", "unitText", "ΔTm GPRK5"],
 "data": [
  ["N#CCc1ccc(Nc2nccc(Nc3cc(C4CC4)[nH]n3)n2)cc1 [compound 1, reference compound]", "°C", 5.2],
  ["CC(C)OC(=O)c1cc(Nc2ccnc(NCc3ccc(NC(=O)OC(C)(C)C)cc3)n2)n[nH]1 [42d]", "°C", -1.3],
  ["CC(C)(C)OC(=O)Nc1ccc(CNc2nccc(Nc3cc(C(=O)OC(C)(C)C)[nH]n3)n2)cc1 [43d]", "°C", -1.4],
  ["COC(=O)c1cc(Nc2ccnc(NCc3ccc(NC(=O)OC(C)(C)C)cc3)n2)[nH]n1 [21i]", "°C", 0.7]
]}

Query :: Requested read-out: ΔTm GPRK5. Entry: COC(=O)c1cc(Nc2ccnc(NCCOCCNC(=O)OC(C)(C)C)n2)[nH]n1 [21d]
Result :: 0.2

###

# tgt: CDK16/Cyclin Y (Homo sapiens, UniProt Q00536)
# Construct: Full-length kinases were obtained as plasmids cloned in frame with a terminal NanoLuc-fusion; CS1810C178 (CCNY); host or cells: HEK293T
# Sequence (Q00536 whole entry, the tested form may be a part): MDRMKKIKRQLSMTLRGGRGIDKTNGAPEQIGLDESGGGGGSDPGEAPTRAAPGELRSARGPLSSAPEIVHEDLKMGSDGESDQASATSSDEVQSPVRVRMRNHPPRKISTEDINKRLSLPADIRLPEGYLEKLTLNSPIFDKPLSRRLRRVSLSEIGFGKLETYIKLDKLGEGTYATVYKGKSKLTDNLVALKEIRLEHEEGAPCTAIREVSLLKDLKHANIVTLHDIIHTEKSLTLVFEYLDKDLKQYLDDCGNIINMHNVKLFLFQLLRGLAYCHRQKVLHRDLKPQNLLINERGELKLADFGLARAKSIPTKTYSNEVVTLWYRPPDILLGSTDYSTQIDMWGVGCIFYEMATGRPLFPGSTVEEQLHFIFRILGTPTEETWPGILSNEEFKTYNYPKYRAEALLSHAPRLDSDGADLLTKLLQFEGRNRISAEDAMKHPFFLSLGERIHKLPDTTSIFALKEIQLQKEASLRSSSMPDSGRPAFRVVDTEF
# Sequence (Q8ND76 2-341 partner limits assumed): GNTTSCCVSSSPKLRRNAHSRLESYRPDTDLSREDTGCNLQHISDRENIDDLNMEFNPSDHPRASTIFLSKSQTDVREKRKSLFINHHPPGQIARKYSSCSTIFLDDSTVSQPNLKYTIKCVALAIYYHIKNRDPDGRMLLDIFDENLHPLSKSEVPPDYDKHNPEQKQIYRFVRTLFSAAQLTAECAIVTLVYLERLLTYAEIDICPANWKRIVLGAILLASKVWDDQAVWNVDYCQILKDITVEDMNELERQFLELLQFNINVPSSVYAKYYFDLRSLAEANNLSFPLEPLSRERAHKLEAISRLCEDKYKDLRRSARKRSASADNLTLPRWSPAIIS
# testProtocol: NanoBRET
# Type: cell-based
# conditionParameters: Figure 7, 11-point dose-response in duplicates; read-out: NanoBRET EC50 ± SEM against CDK16
Kindly supply the reported log10 of EC50 values for the records listed here.
Hello, just confirming the data are log10 of EC50 with units of nM.

{"columns": ["compound", "tgt", "endpoint", "dataValue"],
 "data": [
  ["COC(=O)c1cc(Nc2ccnc(NCc3ccc(CNC(=O)OC(C)(C)C)cc3)n2)[nH]n1 [21g]", "CDK16/Cyclin Y (Homo sapiens, UniProt Q00536)", "log10 of EC50", 2.94],
  ["CC(C)OC(=O)c1cc(Nc2ccnc(NCc3ccc(NC(=O)OC(C)(C)C)cc3)n2)n[nH]1 [42d]", "CDK16/Cyclin Y (Homo sapiens, UniProt Q00536)", "log10 of EC50", 1.64]
]}

Give log10 of EC50 for each listed item.
1. CC(C)(C)OC(=O)NCCCCCNc1nccc(Nc2cc(C3CC3)[nH]n2)n1 [11c]
2. CC(C)(C)OC(=O)NCCc1cccc(Nc2nccc(Nc3cc(C4CC4)n[nH]3)n2)c1 [11b]
3. COC(=O)c1cc(Nc2nc(NCCCCCNC(=O)OC(C)(C)C)ncc2Cl)[nH]n1 [22c]
4. COC(=O)c1cc(Nc2ccnc(NCCCCCCNC(=O)OC(C)(C)C)n2)[nH]n1 [21e]
5. CC(=O)NCCCCCCNc1nccc(Nc2cc(C3CC3)n[nH]2)n1
6. COC(=O)c1cc(Nc2nc(NCCCCCNC(=O)OC(C)(C)C)nc3ccccc23)[nH]n1 [23c]

Result ::
[1.52, 2.09, 3.92, 2.18, 2.00, 3.66]

Query :: I am curious: what log10 of EC50 value has been reported for COC(=O)c1cc(Nc2ccnc(NCCOCCNC(=O)OC(C)(C)C)n2)[nH]n1 [21d] ?
Result :: 3.14

###

For each entry below, report its ΔTm DCAMKL1 value.
# tgt: DCAMKL1 (Homo sapiens, UniProt O15075)
# Construct: purchased in-house DSF panel (SGC Frankfurt)
# Sequence (O15075 390-647): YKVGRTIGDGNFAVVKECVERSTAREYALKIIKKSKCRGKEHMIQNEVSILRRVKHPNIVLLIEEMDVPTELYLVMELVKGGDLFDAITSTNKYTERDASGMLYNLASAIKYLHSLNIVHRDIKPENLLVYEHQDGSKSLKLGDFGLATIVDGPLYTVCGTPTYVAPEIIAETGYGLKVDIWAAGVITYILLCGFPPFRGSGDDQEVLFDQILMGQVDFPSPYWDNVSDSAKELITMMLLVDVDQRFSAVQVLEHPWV
# testProtocol: DSF
# Type: binding
Answers are plain numbers, in °C.

{"columns": ["molecule", "dataValue"],
 "data": [
  ["CN[C@@H]1C[C@H]2O[C@@](C)([C@@H]1OC)n1c3ccccc3c3c4c(c5c6ccccc6n2c5c31)C(=O)NC4 [staurosporine, reference compound]", 12.4]
]}

I need ΔTm DCAMKL1 for every entry listed below, if you could help.
1. CC(C)(C)OC(=O)Nc1ccc(CNc2nccc(Nc3cc(C(=O)OC(C)(C)C)[nH]n3)n2)cc1 [43d]
2. CC(C)OC(=O)c1cc(Nc2ccnc(NCc3ccc(NC(=O)OC(C)(C)C)cc3)n2)n[nH]1 [42d]

Result ::
1. -2.1
2. -2.4

Look up ΔTm DCAMKL1 for the entries below, preserving their order.
1. COC(=O)c1cc(Nc2ccnc(NCCOCCNC(=O)OC(C)(C)C)n2)[nH]n1 [21d]
2. COC(=O)c1cc(Nc2ccnc(NCc3ccc(NC(=O)OC(C)(C)C)cc3)n2)[nH]n1 [21i]
3. N#CCc1ccc(Nc2nccc(Nc3cc(C4CC4)[nH]n3)n2)cc1 [compound 1, reference compound]

Result ::
1. 1.5
2. -0.6
3. 8.9
